Tested on: HCC-827
Experiment: relative viability (nuclei count vs DMSO), 5 days (fraction); higher = more cells survive
Conditions: first compound 8 µM
measured.metric: relative viability

INSERT INTO measurements (molecule, number) VALUES
  ('C=C1C(=O)O[C@@H](CCCCCCCC)[C@@H]1C(=O)O [C-75] + C[C@]1(O)C[C@@H](c2nc(-c3ccc4ccc(-c5ccccc5)nc4c3)c3c(N)nccn32)C1 [Linsitinib] (partner 1 µM)', 0.923),
  ('C=C1C(=O)O[C@@H](CCCCCCCC)[C@@H]1C(=O)O [C-75] + COc1cc2c(Oc3ccc(NC(=O)C4(C(=O)Nc5ccc(F)cc5)CC4)cc3F)ccnc2cc1OCCCN1CCOCC1 [Foretinib] (partner 0.25 µM)', 0.945),
  ('C=C1C(=O)O[C@@H](CCCCCCCC)[C@@H]1C(=O)O [C-75] + Cc1nc(NC(=O)N2CCC[C@H]2C(N)=O)sc1-c1ccnc(C(C)(C)C(F)(F)F)c1 [Alpelisib] (partner 2 µM)', 0.987),
  ('C=C1C(=O)O[C@@H](CCCCCCCC)[C@@H]1C(=O)O [C-75] + N=C(N)NC(=N)NCCc1ccccc1 [Phenformin] (partner 250 µM)', 0.42);

Source of measurements: the supplement of paper PMC10307832
